target: F508delCFTR (Homo sapiens, UniProt P13569, DEL508-508); construct: expressed in transfected cells; host or cells: CFBE41o- human lung-derived epithelial cells (CFBE4lo-F508delCFTR-HRP), doxycycline-inducible; assay: Cell Surface Expression-Horse Radish Peroxidase (CSE-HRP) Assay; assay type: cell-based; conditions: test compound without co-corrector; read-out: EC50 (without co-corrector)
Sequence (P13569 with tags, fused parts or gaps DEL508-508): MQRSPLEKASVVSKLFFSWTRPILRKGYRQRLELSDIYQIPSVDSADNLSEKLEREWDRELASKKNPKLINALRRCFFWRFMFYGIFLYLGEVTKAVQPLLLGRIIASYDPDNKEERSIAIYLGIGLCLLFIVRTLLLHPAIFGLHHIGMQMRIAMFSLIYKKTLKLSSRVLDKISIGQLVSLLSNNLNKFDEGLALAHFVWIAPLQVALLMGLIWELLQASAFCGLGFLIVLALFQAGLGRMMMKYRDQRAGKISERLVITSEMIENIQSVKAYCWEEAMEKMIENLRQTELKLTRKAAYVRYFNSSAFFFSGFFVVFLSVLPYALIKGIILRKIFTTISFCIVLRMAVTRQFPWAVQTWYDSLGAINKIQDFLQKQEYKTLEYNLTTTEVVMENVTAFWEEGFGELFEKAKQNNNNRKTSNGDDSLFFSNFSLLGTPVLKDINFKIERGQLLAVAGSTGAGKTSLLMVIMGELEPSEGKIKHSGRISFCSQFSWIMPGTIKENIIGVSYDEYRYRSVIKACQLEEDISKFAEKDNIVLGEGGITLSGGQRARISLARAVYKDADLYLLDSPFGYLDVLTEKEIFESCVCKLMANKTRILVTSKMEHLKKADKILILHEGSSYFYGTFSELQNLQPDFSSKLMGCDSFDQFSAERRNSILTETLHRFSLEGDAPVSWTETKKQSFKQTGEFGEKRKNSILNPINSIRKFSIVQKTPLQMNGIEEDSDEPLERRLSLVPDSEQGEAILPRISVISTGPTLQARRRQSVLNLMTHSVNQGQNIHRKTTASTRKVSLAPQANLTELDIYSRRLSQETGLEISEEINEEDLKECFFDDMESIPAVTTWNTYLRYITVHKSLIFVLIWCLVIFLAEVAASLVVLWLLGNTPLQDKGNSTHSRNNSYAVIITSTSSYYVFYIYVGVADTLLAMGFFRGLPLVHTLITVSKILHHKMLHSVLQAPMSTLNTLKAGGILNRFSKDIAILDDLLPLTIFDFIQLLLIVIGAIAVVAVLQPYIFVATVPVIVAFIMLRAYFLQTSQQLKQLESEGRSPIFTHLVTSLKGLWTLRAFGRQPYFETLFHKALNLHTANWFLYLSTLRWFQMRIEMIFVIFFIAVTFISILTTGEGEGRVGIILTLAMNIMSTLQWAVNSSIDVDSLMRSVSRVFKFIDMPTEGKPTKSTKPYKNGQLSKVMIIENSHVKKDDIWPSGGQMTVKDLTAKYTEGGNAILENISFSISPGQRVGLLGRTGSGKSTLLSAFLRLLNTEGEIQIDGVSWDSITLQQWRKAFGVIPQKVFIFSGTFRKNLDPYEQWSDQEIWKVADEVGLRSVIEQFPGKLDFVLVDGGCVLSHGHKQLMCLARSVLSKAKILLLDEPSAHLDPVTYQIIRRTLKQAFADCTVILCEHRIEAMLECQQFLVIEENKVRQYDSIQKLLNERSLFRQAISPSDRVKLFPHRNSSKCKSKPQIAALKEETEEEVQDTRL
Would you mind telling me the reported EC50 of each entry?

Prompt: Read the entry COc1nc(C(C)(C)C)ccc1CN[C@H]1[C@H](C(C)(C)C)[C@@H](C(=O)O)N(C(=O)C2CCCC(F)(F)C2)[C@H]1c1ccccc1 (stereo partly shown) [Example I-180] and write its reported EC50.
Completion: 1000 to 10000 nM

Prompt: Read the entry CO[C@H](C(=O)N1[C@H](c2ccccc2)[C@H](Nc2cc(C(F)(F)F)cc(C)n2)[C@@H](C(C)(C)C)[C@@H]1C(=O)O)c1ccccc1 (relative stereo) and write its reported EC50.
Completion: > 10000 nM

Prompt: Read the entry COc1ccc(S(C)(=O)=O)cc1CN[C@@H]1[C@@H](C(C)(C)C)[C@H](C(=O)O)N(C(=O)C2CCCCC2)[C@@H]1c1ccccc1 (racemic) and write its reported EC50.
Completion: > 10000 nM

Prompt: Read the entry COc1ccc(C(C)(C)C)cc1CN[C@H]1[C@H](C(C)(C)C)[C@@H](C(=O)O)N(C(=O)C(OC)C2CC2)[C@H]1c1ccccc1 (single isomer, unassigned) [Example I-96] and write its reported EC50.
Completion: 1000 to 10000 nM

Prompt: Read the entry COc1ncc(C(F)(F)F)cc1CN[C@@H]1[C@@H](C(C)(C)C)[C@H](C(=O)O)N(C(=O)C2CCCCC2)[C@@H]1c1ccccc1 (racemic) and write its reported EC50.
Completion: 1000 to 10000 nM

Prompt: Read the entry COc1ccc(C2(C(F)(F)F)CC2)cc1CN[C@H]1[C@H](C(C)(C)C)[C@@H](C(=O)O)N(C(=O)[C@@H]2CCCCO2)[C@H]1c1cccnc1N(C)C and write its reported EC50.
Completion: 1000 to 10000 nM

Prompt: Read the entry COc1ccc(C(C)(C)C)cc1CN[C@H]1[C@H](C(C)(C)C)[C@@H](C(=O)O)N(C(=O)C2(c3ccccc3)CC2)[C@H]1c1cccnc1OC and write its reported EC50.
Completion: 1000 to 10000 nM

Prompt: Read the entry COc1ccc(C(C)(C)C)cc1CN[C@H]1[C@H](C(C)(C)C)[C@@H](C(=O)O)N(C(=O)c2ccc3cccc(F)c3n2)[C@H]1c1ccccc1 and write its reported EC50.
Completion: 1000 to 10000 nM

Prompt: Read the entry COc1ncc(C2CCC2)cc1CN[C@H]1[C@H](C(C)(C)C)[C@@H](C(=O)O)N(C(=O)C2C3CCCC32)[C@H]1c1cccnc1N(C)C (stereo partly shown) and write its reported EC50.
Completion: 1000 to 10000 nM

Prompt: Read the entry COc1ccc(C(C)(C)C)cc1CN[C@H]1[C@H](C(C)(C)C)[C@@H](C(=O)O)N(C(=O)[C@@H]2CCCO2)[C@H]1c1cccnc1C1CC1 and write its reported EC50.
Completion: 1000 to 10000 nM

Prompt: Read the entry COc1nc(C(C)(C)C)ccc1CN[C@H]1[C@H](C(C)(C)C)[C@@H](C(=O)O)N(C(=O)Cc2ccccc2C)[C@H]1c1ccccc1C(C)C and write its reported EC50.
Completion: < 1000 nM

Prompt: Read the entry COC(C)(C)[C@@H]1[C@@H](Nc2cc(C(F)(F)F)cc(C)n2)[C@@H](c2ccccc2)N(C(=O)C2CCCCC2)[C@H]1C(=O)O (racemic) and write its reported EC50.
Completion: 1000 to 10000 nM

Prompt: Read the entry COc1ncc(C2CCC2)cc1CN[C@H]1[C@H](C(C)(C)C)[C@@H](C(=O)O)N(C(=O)C2CCCCC2C)[C@H]1c1ccccc1 (stereo partly shown) and write its reported EC50.
Completion: 1000 to 10000 nM

Prompt: Read the entry COc1ncc(C(F)(F)F)cc1CN[C@H]1[C@H](C(C)(C)C)[C@@H](C(=O)O)N(C(=O)C2CCCC2)[C@H]1c1ccccc1C(C)C and write its reported EC50.
Completion: < 1000 nM

Prompt: Read the entry COc1ccc(C23CC(C2)C3)cc1CN[C@H]1[C@H](C(C)(C)C)[C@@H](C(=O)O)N(C(=O)OC(C)C)[C@H]1c1ccccc1C(C)C and write its reported EC50.
Completion: < 1000 nM

Prompt: Read the entry COc1ccc(C(C)(C)C)cc1CN[C@H]1[C@H](C(C)(C)C)[C@@H](C(=O)O)N(C(=O)[C@@H]2C[C@H]3CC[C@@H]2O3)[C@H]1c1ccccc1C(C)C (relative stereo) and write its reported EC50.
Completion: 1000 to 10000 nM

Prompt: Read the entry COc1ncc(-c2ccccc2)cc1CN[C@H]1[C@H](C(C)(C)C)[C@@H](C(=O)O)N(C(=O)C2CCCCC2)[C@H]1c1ccccc1 and write its reported EC50.
Completion: < 1000 nM

Prompt: Read the entry COc1ccc(C(F)(F)F)nc1CN[C@H]1[C@H](C(C)(C)C)[C@@H](C(=O)O)N(C(=O)C2CCCCC2)[C@H]1c1ccccc1 and write its reported EC50.
Completion: 1000 to 10000 nM

Prompt: Read the entry COc1ccc(C2(C)CCC2)cc1CN[C@H]1[C@H](C(C)(C)C)[C@@H](C(=O)O)N(C(=O)[C@H]2CCCCO2)[C@H]1c1cccnc1OC and write its reported EC50.
Completion: 1000 to 10000 nM

Prompt: Read the entry COc1ccc(C(C)(C)C)cc1CN[C@H]1[C@H](C(C)(C)C)[C@@H](C(=O)O)N(C(=O)[C@@H]2[C@@H](C(F)(F)F)[C@@H]3CC[C@H]2O3)[C@H]1c1ccccc1OC(F)F (relative stereo) and write its reported EC50.
Completion: < 1000 nM

Prompt: Read the entry COc1ccc(C(C)(C)C)cc1CN[C@H]1[C@H](C(C)(C)C)[C@@H](C(=O)O)N(C(=O)[C@@H](C)[C@@H]2CCCCO2)[C@H]1c1ccccc1 (relative stereo) and write its reported EC50.
Completion: 1000 to 10000 nM

Prompt: Read the entry CCOc1cc(N[C@H]2[C@H](C(C)(C)C)[C@@H](C(=O)O)N(C(=O)C3CCCCC3)[C@H]2c2ccccc2)nc2ccccc12 and write its reported EC50.
Completion: > 10000 nM
